biological target: CYP2D6 (Homo sapiens); construct: 0.05 mg/mL liver microsome (BioIVT, IHG) phosphate buffer solution; tissue BioIVT IHG; host or cells: human liver microsomes; assay: CYP450 enzyme inhibition in human liver microsomes, CYP2D6; format: in vitro ADME; conditions: substrate Dextromethorphan, read-out: Inhibitory activity IC50 (μM) CYP2D6
Sequence (P10635 whole entry): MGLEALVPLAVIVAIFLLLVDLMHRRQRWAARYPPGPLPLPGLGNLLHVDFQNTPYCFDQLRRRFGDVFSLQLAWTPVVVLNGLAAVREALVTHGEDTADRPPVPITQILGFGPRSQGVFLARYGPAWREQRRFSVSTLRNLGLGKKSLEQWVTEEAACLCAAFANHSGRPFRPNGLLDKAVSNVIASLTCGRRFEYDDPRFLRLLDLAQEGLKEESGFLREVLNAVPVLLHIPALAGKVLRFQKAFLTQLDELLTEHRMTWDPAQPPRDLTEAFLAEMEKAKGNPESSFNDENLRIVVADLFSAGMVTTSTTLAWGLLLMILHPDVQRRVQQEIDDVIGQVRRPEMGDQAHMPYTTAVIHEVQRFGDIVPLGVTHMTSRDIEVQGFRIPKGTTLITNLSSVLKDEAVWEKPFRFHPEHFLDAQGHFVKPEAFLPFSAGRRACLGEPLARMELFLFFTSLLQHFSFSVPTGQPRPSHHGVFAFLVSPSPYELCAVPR
measuredMetric: IC50

Reported IC50 for CYP2D6 (Homo sapiens), given CC(=O)N1CCOC[C@H]1CNc1nc2nc(-c3c(C)cc(C(F)(F)F)cc3O)ccc2o1 ?
> 30 µM

---

biological target: His6-Flag-TEV-NLRP3 (134-1036) (Homo sapiens, UniProt Q96P20); construct: fused on or other part: N-terminal His6 tag, Flag tag and TEV cleavage site; experiment: NLRP3 fluorescence polarization (FP) binding assay, competition with probe NP3-301; conditions: competition with NP3-301 for binding to NLRP3 (134-1036), 30 nM protein
Sequence (Q96P20 134-1036 limits assumed): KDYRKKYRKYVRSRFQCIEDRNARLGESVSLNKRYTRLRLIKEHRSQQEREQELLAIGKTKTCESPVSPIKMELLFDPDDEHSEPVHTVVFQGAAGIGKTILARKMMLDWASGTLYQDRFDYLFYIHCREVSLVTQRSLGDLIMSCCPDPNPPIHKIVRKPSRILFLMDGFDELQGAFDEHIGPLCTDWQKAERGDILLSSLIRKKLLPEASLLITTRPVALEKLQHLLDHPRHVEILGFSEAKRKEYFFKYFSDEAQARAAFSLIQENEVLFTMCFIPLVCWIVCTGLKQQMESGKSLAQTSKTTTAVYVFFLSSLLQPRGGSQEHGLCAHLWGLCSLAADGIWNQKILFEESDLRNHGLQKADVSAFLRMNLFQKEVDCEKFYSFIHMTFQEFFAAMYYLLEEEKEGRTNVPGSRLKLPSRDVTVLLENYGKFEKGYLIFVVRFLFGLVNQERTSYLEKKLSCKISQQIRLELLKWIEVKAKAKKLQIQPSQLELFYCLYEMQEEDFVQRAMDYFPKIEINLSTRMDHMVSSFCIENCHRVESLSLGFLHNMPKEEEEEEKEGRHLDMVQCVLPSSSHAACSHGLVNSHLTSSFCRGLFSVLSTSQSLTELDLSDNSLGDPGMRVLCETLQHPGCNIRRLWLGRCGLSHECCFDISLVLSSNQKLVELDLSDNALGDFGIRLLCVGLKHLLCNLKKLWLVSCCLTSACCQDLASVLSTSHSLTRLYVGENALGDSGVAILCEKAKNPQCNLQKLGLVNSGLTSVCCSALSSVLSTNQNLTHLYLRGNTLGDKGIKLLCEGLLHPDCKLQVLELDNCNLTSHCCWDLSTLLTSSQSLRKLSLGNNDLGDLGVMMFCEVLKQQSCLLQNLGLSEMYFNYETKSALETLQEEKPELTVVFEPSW
pIC50: −log10 of the molar value.
measuredMetric: pIC50

{"entrySmiles": "Cc1cc(C(F)(F)F)cc(O)c1-c1ccc2oc(N3CCN(S(=O)(=O)C4CC4)CC3)nc2n1", "pIC50": "≥ 7.00"}

Hello, I would appreciate it if you could give pIC50 for each entry below.
1. Cc1cc(C(F)(F)F)cc(O)c1-c1ccc2[nH]c(CC(=O)O)nc2n1
2. CCN1CCC2(CC1)CCN(c1nc3nc(-c4c(C)cc(C(F)(F)F)cc4O)ccc3o1)CC2
3. CCN1CCC[C@@H](Nc2nc3ccc(-c4c(C)cc(F)cc4O)nn3n2)C1
4. Cc1cc(C(F)(F)F)cc(O)c1-c1ccc2cc(N3CCOC[C@H]3C)nn2n1
5. CCN1CCC[C@@H](Nc2nc3nc(-c4c(C)cc(C(F)(F)F)cc4O)ccn3n2)C1

["6.00 to 6.30", "6.30 to 7.00", "≥ 7.00", "≥ 7.00", "≥ 7.00"]

Hello, I would appreciate it if you could give pIC50 for each entry below.
1. Oc1cc(Cl)cc(O)c1-c1ccc2oc(N3CCOCC3)nc2n1
2. Cc1cc(C(F)(F)F)cc(O)c1-c1ccc2oc(N[C@@H]3CCCN(CC#N)C3)nc2n1
3. CC(=O)N1CCOC[C@H]1CNc1nc2nc(-c3c(C)cc(C(F)(F)F)cc3O)ccn2n1
4. CCS(=O)(=O)N1CCN(c2nc3nc(-c4c(C)cc(C)cc4O)ccc3o2)CC1
5. Cc1cc(C(F)(F)F)cc(O)c1-c1ccc2oc(NC[C@@H](C)O)nc2n1
6. Cc1cc(C(F)(F)F)cc(O)c1-c1ccc2oc(N[C@@H]3CCCN(C4COC4)C3)nc2n1

1. ≥ 7.00
2. ≥ 7.00
3. 6.00 to 6.30
4. ≥ 7.00
5. ≥ 7.00
6. ≥ 7.00

Hello, I would appreciate it if you could give pIC50 for each entry below.
1. Cc1cc(Cl)cc(O)c1-c1ccc2nc(N3CCOCC3)nn2n1
2. Cc1cc(C(F)(F)F)cc(O)c1-c1ccc2oc(N3C[C@@H]4C[C@H]3CO4)nc2n1

1. ≥ 7.00
2. 6.30 to 7.00

---

experiment: Pharmacokinetic evaluation in rats; type: in vivo; details: rat, plasma, 1 mg/kg; SD male rats, Dosage IV/PO 1/3 mg/kg
measuredMetric: clearance (mL/min/kg)
Numbers only, in mL/min/kg.

Any idea what clearance was measured for CC(=O)N1CCOC[C@H]1CNc1nc2nc(-c3c(C)cc(C(F)(F)F)cc3O)ccc2o1 ?
5.78
